Tested on: MDA-MB-231
Test: Growth inhibition of human ER-negative MDA-MB-231 cells incubated for 72 hrs by cell counter method
Format: functional
Details: MDA-MB-231, 72 h
Answer each item with its documented GI50.
Value expressed in µM; do not type the unit.

Asked: Quick check: GI50 of `N#Cc1ccc(C(c2ccc(C#N)cc2)n2cncn2)cc1` ?
Given back: 34

Asked: Look at this molecule and give its reported GI50. `O=c1c2ccccc2oc2c(Cn3ccnc3)cccc12`
Given back: 58.3

Asked: Query: GI50; subject: `O=c1c2ccccc2oc2cc(Cn3ccnc3)ccc12`
Given back: 30.4

Asked: Consider the molecule `O=c1c2ccccc2oc2cccc(Cn3ccnc3)c12` and give its measured GI50.
Given back: 44.3

Asked: I would be grateful if you could share the reported GI50 for `CCC#CCOc1cc(Cn2ccnc2)c2c(=O)c3ccccc3oc2c1` .
Given back: 17.5

Asked: I have this molecule here, `CCC#CCOc1cc(Cn2ccnc2)c2oc3ccccc3c(=O)c2c1` , and I need its recorded GI50.
Given back: 21.1
